Every entry's value here was drawn from patent US4537717A.

Tested on: Staphylococcus aureus X400
Assay type: cell-based
Settings: methicillin-resistant strain; agar dilution; 2, 5, 17, 22 median of three tests; paired values two experiments
Endpoint: MIC Staphylococcus aureus X400 (µg/mL)
Provide only the numeric value, understood in µg/mL.

Quick check: MIC Staphylococcus aureus X400 on Staphylococcus aureus X400, item CCCCCCCCCCCCC(=O)N[C@@H](Cc1c[nH]c2ccccc12)C(=O)N[C@@H](CC(N)=O)C(=O)N[C@@H](CC(=O)O)C(=O)N[C@@H]1C(=O)NCC(=O)N[C@@H](CCCN)C(=O)N[C@@H](CC(=O)O)C(=O)N[C@H](C)C(=O)N[C@@H](CC(=O)O)C(=O)NCC(=O)N[C@H](CO)C(=O)N[C@@H]([C@H](C)CC(=O)O)C(=O)N[C@@H](CC(=O)c2ccccc2N)C(=O)O[C@@H]1C [Compound 7] ?
0.5

###

Test system: Bacillus subtilis ATCC 6633
Experiment: agar-plate disc-diffusion test
Conditions: suspended in water at 1 mg/ml; 7 mm disc; 24-48 hours at 25-37° C.
Parameter: Size of Zone of Inhibition (mm) Bacillus subtilis ATCC 6633. Scope: all listed entries.
Please reply with the bare figure in mm and do not write the unit itself.

The following molecules have reported results that may help.
1) CCCCCCCCCCC(=O)NCCC[C@@H]1NC(=O)CNC(=O)[C@@H](NC(=O)[C@H](CC(=O)O)NC(=O)[C@H](CC(N)=O)NC(=O)[C@H](Cc2c[nH]c3ccccc23)NC(=O)CCCCCCCCCC)[C@@H](C)OC(=O)[C@H](CC(=O)c2ccccc2N)NC(=O)[C@H]([C@H](C)CC(=O)O)NC(=O)[C@@H](CO)NC(=O)CNC(=O)[C@H](CC(=O)O)NC(=O)[C@@H](C)NC(=O)[C@H](CC(=O)O)NC1=O
13
2) CCCCCCCC(=O)N[C@@H](Cc1c[nH]c2ccccc12)C(=O)N[C@@H](CC(N)=O)C(=O)N[C@@H](CC(=O)O)C(=O)N[C@@H]1C(=O)NCC(=O)N[C@@H](CCCN)C(=O)N[C@@H](CC(=O)O)C(=O)N[C@H](C)C(=O)N[C@@H](CC(=O)O)C(=O)NCC(=O)N[C@H](CO)C(=O)N[C@@H]([C@H](C)CC(=O)O)C(=O)N[C@@H](CC(=O)c2ccccc2N)C(=O)O[C@@H]1C
18
3) C=CCCCCCCCCC(=O)N[C@@H](Cc1c[nH]c2ccccc12)C(=O)N[C@@H](CC(N)=O)C(=O)N[C@@H](CC(=O)O)C(=O)N[C@@H]1C(=O)NCC(=O)N[C@@H](CCCN)C(=O)N[C@@H](CC(=O)O)C(=O)N[C@H](C)C(=O)N[C@@H](CC(=O)O)C(=O)NCC(=O)N[C@H](CO)C(=O)N[C@@H]([C@H](C)CC(=O)O)C(=O)N[C@@H](CC(=O)c2ccccc2N)C(=O)O[C@@H]1C
17

Shifting focus to the molecule that follows.
# lookup: Size of Zone of Inhibition (mm) Bacillus subtilis ATCC 6633 of CCC(C)CCCCCCC(=O)N[C@@H](Cc1c[nH]c2ccccc12)C(=O)N[C@@H](CC(N)=O)C(=O)N[C@@H](CC(=O)O)C(=O)N[C@@H]1C(=O)NCC(=O)N[C@@H](CCCNC(=O)CCC(=O)O)C(=O)N[C@@H](CC(=O)O)C(=O)N[C@H](C)C(=O)N[C@@H](CC(=O)O)C(=O)NCC(=O)N[C@H](CO)C(=O)N[C@@H]([C@H](C)CC(=O)O)C(=O)N[C@@H](CC(=O)c2ccccc2N)C(=O)O[C@@H]1C (some centres unmarked)
18

###

System: Streptococcus Group 9960
Assay type: cell-based, Streptococcus pneumoniae
Conditions: agar dilution; 2, 5, 17, 22 median of three tests; paired values two experiments
Endpoint: MIC Streptococcus pneumoniae Group 9960 (µg/mL)
// return numeric value only (unit: µg/mL, not printed)

Consider the worked cases shown below.
1. CCCCCCCCCCC(=O)N[C@@H](Cc1c[nH]c2ccccc12)C(=O)N[C@@H](CC(N)=O)C(=O)N[C@@H](CC(=O)O)C(=O)N[C@@H]1C(=O)NCC(=O)N[C@@H](CCCN)C(=O)N[C@@H](CC(=O)O)C(=O)N[C@H](C)C(=O)N[C@@H](CC(=O)O)C(=O)NCC(=O)N[C@H](CO)C(=O)N[C@@H]([C@H](C)CC(=O)O)C(=O)N[C@@H](CC(=O)c2ccccc2N)C(=O)O[C@@H]1C
0.5
2. C=CCCCCCCCCC(=O)N[C@@H](Cc1c[nH]c2ccccc12)C(=O)N[C@@H](CC(N)=O)C(=O)N[C@@H](CC(=O)O)C(=O)N[C@@H]1C(=O)NCC(=O)N[C@@H](CCCN)C(=O)N[C@@H](CC(=O)O)C(=O)N[C@H](C)C(=O)N[C@@H](CC(=O)O)C(=O)NCC(=O)N[C@H](CO)C(=O)N[C@@H]([C@H](C)CC(=O)O)C(=O)N[C@@H](CC(=O)c2ccccc2N)C(=O)O[C@@H]1C
0.5

Recorded MIC Streptococcus pneumoniae Group 9960 of CCCCCCCCCCCC(=O)N[C@@H](Cc1c[nH]c2ccccc12)C(=O)N[C@@H](CC(N)=O)C(=O)N[C@@H](CC(=O)O)C(=O)N[C@@H]1C(=O)NCC(=O)N[C@@H](CCCN)C(=O)N[C@@H](CC(=O)O)C(=O)N[C@H](C)C(=O)N[C@@H](CC(=O)O)C(=O)NCC(=O)N[C@H](CO)C(=O)N[C@@H]([C@H](C)CC(=O)O)C(=O)N[C@@H](CC(=O)c2ccccc2N)C(=O)O[C@@H]1C , please.
0.5

###

Tested on: Staphylococcus aureus
Experiment: in vivo activity against experimental bacterial infection (ED50)
Details: mice; two doses subcutaneously; dose protecting fifty percent of test animals
Endpoint: ED50 Staphylococcus aureus Subcutaneous (mg/kg × 2)
Entry rule: numbers only, all in mg/kg × 2.

Record excerpt, results attached:
1. CCCCCCCCCCCC(=O)N[C@@H](Cc1c[nH]c2ccccc12)C(=O)N[C@@H](CC(N)=O)C(=O)N[C@@H](CC(=O)O)C(=O)N[C@@H]1C(=O)NCC(=O)N[C@@H](CCCN)C(=O)N[C@@H](CC(=O)O)C(=O)N[C@H](C)C(=O)N[C@@H](CC(=O)O)C(=O)NCC(=O)N[C@H](CO)C(=O)N[C@@H]([C@H](C)CC(=O)O)C(=O)N[C@@H](CC(=O)c2ccccc2N)C(=O)O[C@@H]1C [Compound 6]
0.44
2. C=CCCCCCCCCC(=O)N[C@@H](Cc1c[nH]c2ccccc12)C(=O)N[C@@H](CC(N)=O)C(=O)N[C@@H](CC(=O)O)C(=O)N[C@@H]1C(=O)NCC(=O)N[C@@H](CCCN)C(=O)N[C@@H](CC(=O)O)C(=O)N[C@H](C)C(=O)N[C@@H](CC(=O)O)C(=O)NCC(=O)N[C@H](CO)C(=O)N[C@@H]([C@H](C)CC(=O)O)C(=O)N[C@@H](CC(=O)c2ccccc2N)C(=O)O[C@@H]1C [Compound 11]
0.93
3. CCCCCCCCC(=O)N[C@@H](Cc1c[nH]c2ccccc12)C(=O)N[C@@H](CC(N)=O)C(=O)N[C@@H](CC(=O)O)C(=O)N[C@@H]1C(=O)NCC(=O)N[C@@H](CCCN)C(=O)N[C@@H](CC(=O)O)C(=O)N[C@H](C)C(=O)N[C@@H](CC(=O)O)C(=O)NCC(=O)N[C@H](CO)C(=O)N[C@@H]([C@H](C)CC(=O)O)C(=O)N[C@@H](CC(=O)c2ccccc2N)C(=O)O[C@@H]1C [Compound 3]
0.5

Alright, here's another molecule for you.
# ED50 Staphylococcus aureus Subcutaneous lookup, item CCCCCCCCCCCCCCC(=O)N[C@@H](Cc1c[nH]c2ccccc12)C(=O)N[C@@H](CC(N)=O)C(=O)N[C@@H](CC(=O)O)C(=O)N[C@@H]1C(=O)NCC(=O)N[C@@H](CCCN)C(=O)N[C@@H](CC(=O)O)C(=O)N[C@H](C)C(=O)N[C@@H](CC(=O)O)C(=O)NCC(=O)N[C@H](CO)C(=O)N[C@@H]([C@H](C)CC(=O)O)C(=O)N[C@@H](CC(=O)c2ccccc2N)C(=O)O[C@@H]1C [Compound 9]
8.3

###

Experiment: toxicity test (LD50)
Conditions: mouse, in vivo, iv, mice; administered intravenously
LD50 for assorted compounds
The reply should be a number in mg/kg, with the unit left off.

1) CCCCCCCCCCC(=O)NCCC[C@@H]1NC(=O)CNC(=O)[C@@H](NC(=O)[C@H](CC(=O)O)NC(=O)[C@H](CC(N)=O)NC(=O)[C@H](Cc2c[nH]c3ccccc23)NC(=O)CCCCCCCCCC)[C@@H](C)OC(=O)[C@H](CC(=O)c2ccccc2N)NC(=O)[C@H]([C@H](C)CC(=O)O)NC(=O)[C@@H](CO)NC(=O)CNC(=O)[C@H](CC(=O)O)NC(=O)[C@@H](C)NC(=O)[C@H](CC(=O)O)NC1=O
94

Given CCCCCCCCCCCCCCC(=O)N[C@@H](Cc1c[nH]c2ccccc12)C(=O)N[C@@H](CC(N)=O)C(=O)N[C@@H](CC(=O)O)C(=O)N[C@@H]1C(=O)NCC(=O)N[C@@H](CCCN)C(=O)N[C@@H](CC(=O)O)C(=O)N[C@H](C)C(=O)N[C@@H](CC(=O)O)C(=O)NCC(=O)N[C@H](CO)C(=O)N[C@@H]([C@H](C)CC(=O)O)C(=O)N[C@@H](CC(=O)c2ccccc2N)C(=O)O[C@@H]1C , state its recorded LD50.
56.2
